strain 3 MIC reference
Test system: E. cloacae 34654
ASSAY METHOD TEXT: MIC determination, broth microdilution (CLSI)
Assay type: cell-based
CONDITION SET: strain 3
Enter your answer as a number in µg/mL; do not include the unit.

Before answering, review these 8 worked examples.
- MOLECULE: "CC1(C)[C@H](NC(=O)/C(=N\\OC(CCO)COc2ccc(C(=N)N)cc2)c2csc(N)n2)C(=O)N1OS(=O)(=O)O (single isomer, unassigned) [Example 81A]"
  READOUT LABEL: "strain 3 MIC"
  UNIT ANNOTATION: "µg/mL"
  RESULT VALUE: 16
- MOLECULE: "CC1(C)[C@H](NC(=O)/C(=N\\OC(CO)COc2ccc(C(=N)N)cc2)c2csc(N)n2)C(=O)N1OS(=O)(=O)O (mixture of isomers) [Example 45B]"
  READOUT LABEL: "strain 3 MIC"
  UNIT ANNOTATION: "µg/mL"
  RESULT VALUE: 4
- MOLECULE: "CC1(C)[C@H](NC(=O)/C(=N\\OCC(Oc2ccc(C(=N)N)cc2)C(=O)O)c2csc(N)n2)C(=O)N1OS(=O)(=O)O (single isomer, unassigned) [Example 87B]"
  READOUT LABEL: "strain 3 MIC"
  UNIT ANNOTATION: "µg/mL"
  RESULT VALUE: 1
- MOLECULE: "CC1(C)[C@H](NC(=O)/C(=N\\OC(CO)COc2ccc(C(=N)N)cc2)c2csc(N)n2)C(=O)N1OS(=O)(=O)O (mixture of isomers) [Example 45A]"
  READOUT LABEL: "strain 3 MIC"
  UNIT ANNOTATION: "µg/mL"
  RESULT VALUE: 1
- MOLECULE: "CC1(C)[C@H](NC(=O)/C(=N\\OC(COc2ccc(C(=N)NCCN)cc2)C(=O)O)c2csc(N)n2)C(=O)N1OS(=O)(=O)O (mixture of isomers) [Example 44A]"
  READOUT LABEL: "strain 3 MIC"
  UNIT ANNOTATION: "µg/mL"
  RESULT VALUE: 0.125
- MOLECULE: "CC1(C)[C@H](NC(=O)/C(=N\\OC(COc2ccc(C(=N)N)c(O)c2)C(=O)O)c2csc(N)n2)C(=O)N1OS(=O)(=O)O (mixture of isomers) [Example 34A]"
  READOUT LABEL: "strain 3 MIC"
  UNIT ANNOTATION: "µg/mL"
  RESULT VALUE: 0.5
- MOLECULE: "C[C@H]1[C@H](NC(=O)/C(=N\\OC(COc2ccc(C(=N)N)cc2)C(=O)O)c2csc(N)n2)C(=O)N1S(=O)(=O)O (mixture of isomers) [Example 26A]"
  READOUT LABEL: "strain 3 MIC"
  UNIT ANNOTATION: "µg/mL"
  RESULT VALUE: 0.125
- MOLECULE: "C[C@H]1[C@H](NC(=O)/C(=N\\OC(COc2ccc(C(=N)N)cc2)C(=O)O)c2csc(N)n2)C(=O)N1S(=O)(=O)O (mixture of isomers) [Example 26B]"
  READOUT LABEL: "strain 3 MIC"
  UNIT ANNOTATION: "µg/mL"
  RESULT VALUE: 1

// field: strain 3 MIC; key: CC1(C)[C@H](NC(=O)/C(=N\OC(COc2ccc(C(=N)N)nc2)C(=O)O)c2csc(N)n2)C(=O)N1OS(=O)(=O)O (mixture of isomers) [Example 36B] ; value = 2

For this molecule ( CC1(C)[C@H](NC(=O)/C(=N\OC(COc2ccc(C(=N)N)cc2)C(=O)O)c2csc(N)n2)C(=O)N1OS(=O)(=O)O (mixture of isomers) [Example 27B] ), measured strain 3 MIC is 4

Briefly, strain 3 MIC measured for CC1(C)[C@H](NC(=O)/C(=N\OC(COc2ccc(C(=N)N)c(O)c2)C(=O)O)c2csc(N)n2)C(=O)N1OS(=O)(=O)O (mixture of isomers) [Example 34B] : 4
